Biological target: Guanine nucleotide-binding protein G(o) subunit alpha (Homo sapiens, UniProt P09471)
Sequence (P09471 whole entry): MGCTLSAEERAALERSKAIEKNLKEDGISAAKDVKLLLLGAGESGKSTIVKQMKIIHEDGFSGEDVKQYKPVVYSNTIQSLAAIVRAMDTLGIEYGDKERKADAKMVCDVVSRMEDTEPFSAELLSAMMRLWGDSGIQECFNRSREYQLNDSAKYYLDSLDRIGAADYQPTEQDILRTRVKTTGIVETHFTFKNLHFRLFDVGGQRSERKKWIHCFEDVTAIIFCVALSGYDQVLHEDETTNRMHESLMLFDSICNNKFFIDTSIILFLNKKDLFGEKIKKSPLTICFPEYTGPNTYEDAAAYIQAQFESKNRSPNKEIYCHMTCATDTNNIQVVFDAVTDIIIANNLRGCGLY
Assay: Concentration required to stimulate binding of [35S]GTP-gamma-S, with G alpha o1
resultType: EC50 (µM)
# number only, unit µM dropped from output

Would you kindly share the measured EC50 for CCCCCCCCCCCCCCCNN1CCNCC1 ?
6.1

Would you kindly share the measured EC50 for CCCCCCCCCCCCCCC(=O)N1CCC(C2CCN(C)CC2)CC1 ?
34.9

Would you kindly share the measured EC50 for CCCCCCCCCCCCCCCCC(=O)N1CCC(C2CCNCC2)CC1 ?
22.6

Would you kindly share the measured EC50 for CCCCCCCCCCCCCCCN1CCC(NC2CCNCC2)CC1 ?
13.5

Would you kindly share the measured EC50 for CCCCCCCCCCCCCCCN1CCC(C2CCNCC2)CC1 ?
6.2

Others:
Would you kindly share the measured EC50 for CCCCCCCCCCCCCCC(=O)N1CCC(CCC2CCNCC2)CC1 ?
6.1

Would you kindly share the measured EC50 for CCCCCCCCCCCCCCC[N+]1(C)CCC(C2CCNCC2)CC1 (stereo unspecified) ?
10.1

Data credit: ChEMBL document CHEMBL1140445
